Test: Solubility in aqueous media
Format: physicochemical
Details: water, Solubility
observed-property: solubility

Query: Consider the compound `CC[C@@H]1C(=O)N(C)c2cnc(Nc3ccc(C(=O)N[C@H]4CC[C@H](N5CCN(CC6CC6)CC5)CC4)cc3OC)nc2N1C(C)C.Cl` and give its measured solubility.
Result: > 10000 µg/mL

###

Test: Solubility in aqueous media
Type: physicochemical
Details: pH 5, aqueous buffer, Solubility
observed-property: solubility (µg/mL)
Write the answer as a number in µg/mL, unit excluded.

Query: Consider the compound `CC[C@@H]1C(=O)N(C)c2cnc(Nc3ccc(C(=O)N[C@H]4CC[C@H](N5CCN(CC6CC6)CC5)CC4)cc3OC)nc2N1C(C)C.Cl` and give its measured solubility.
Result: 7200

###

Assay: Solubility in aqueous media
Type: physicochemical
Conditions: pH 3, aqueous buffer, Solubility
observed-property: solubility (mg/mL)
Write the answer as a number in mg/mL, unit excluded.

Query: Consider the compound `CC[C@@H]1C(=O)N(C)c2cnc(Nc3ccc(C(=O)N[C@H]4CC[C@H](N5CCN(CC6CC6)CC5)CC4)cc3OC)nc2N1C(C)C.Cl` and give its measured solubility.
Result: 6.2

###

Assay: physchem
Type: physicochemical
Settings: organic solvent or mixture
observed-property: solubility

Query: Consider the compound `CC[C@@H]1C(=O)N(C)c2cnc(Nc3ccc(C(=O)N[C@H]4CC[C@H](N5CCN(CC6CC6)CC5)CC4)cc3OC)nc2N1C(C)C.Cl` and give its measured solubility.
Result: > 10000 µg/mL
